# System tested: cloned recombinant human HDAC-1 (Homo sapiens, UniProt Q13547)
# Construct: made in house; host or cells: Baculovirus insect cell expression system
# Sequence (Q13547 whole entry): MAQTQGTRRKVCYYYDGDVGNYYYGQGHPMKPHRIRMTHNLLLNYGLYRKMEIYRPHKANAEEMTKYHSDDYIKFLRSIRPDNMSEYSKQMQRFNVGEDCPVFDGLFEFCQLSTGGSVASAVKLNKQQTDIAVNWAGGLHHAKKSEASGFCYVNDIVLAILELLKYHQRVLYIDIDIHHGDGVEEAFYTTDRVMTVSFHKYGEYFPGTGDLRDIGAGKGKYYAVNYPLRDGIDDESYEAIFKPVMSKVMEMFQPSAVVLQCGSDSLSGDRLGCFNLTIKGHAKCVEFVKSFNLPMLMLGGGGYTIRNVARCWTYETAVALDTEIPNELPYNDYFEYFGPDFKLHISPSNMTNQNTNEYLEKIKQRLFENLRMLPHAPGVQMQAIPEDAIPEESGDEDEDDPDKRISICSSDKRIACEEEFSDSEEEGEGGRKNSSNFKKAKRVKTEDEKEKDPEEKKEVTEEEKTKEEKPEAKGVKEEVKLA
# Run description: Human HDAC-1 enzyme inhibition, Assay 1 ([3H]-acetylated histone substrate, scintillation counting)
# Assay type: biochemical
# Measurement conditions: Table 5d; read-out: HDAC-1 IC50
Observable: IC50

>  <Molecular string>
COc1cc(OC)c(OC)cc1CNc1ccc(/C=C/C(=O)Nc2ccccc2N)cc1

>  <System tested>
cloned recombinant human HDAC-1 (Homo sapiens, UniProt Q13547)

>  <Result>
6 µM

$$$$
>  <Molecular string>
COc1cc(OC)nc(NCc2ccc(/C=C/C(=O)Nc3ccccc3N)cc2)n1

>  <System tested>
cloned recombinant human HDAC-1 (Homo sapiens, UniProt Q13547)

>  <Result>
4 µM

$$$$

Below is a list of molecules. For each, state its recorded IC50.
1. CC(=O)NCc1cccc(NCc2ccc(/C=C/C(=O)Nc3ccccc3N)cc2)c1
2. Nc1ccccc1NC(=O)/C=C/c1ccc(CNc2cccc3ccccc23)cc1
3. Nc1ccccc1NC(=O)/C=C/c1ccc(C(=O)Nc2ccccc2N)cc1
4. Nc1ccccc1NC(=O)/C=C/c1ccc(CNc2cccc(-c3nnn[nH]3)c2)cc1
5. Nc1ccccc1NC(=O)/C=C/c1ccc(CNc2ccc(N3CCOCC3)cc2)cc1
6. COc1cc(NCc2ccc(/C=C/C(=O)Nc3ccccc3N)cc2N)cc(OC)c1OC

Resp:
1. 5 µM
2. 7 µM
3. 5 µM
4. 15 µM
5. 5 µM
6. > 25 µM

Req: Please give measured IC50 of the following entry: `Nc1ccccc1NC(=O)/C=C/c1ccc(CNc2cccc(Cl)c2)cc1`
Resp: 4 µM

These data points were gathered from patent US7868204B2.
